- Tested on: MRSA (a wild clinical strain from the JCU culture collection)
- Assay method text: MIC determination, broth micro-dilution (CAMHB)
- Type: cell-based, methicillin-resistant S. aureus
- Assay setup: Table 1; 37° C., 24 h

{"columns": ["Molecule", "Censoring qualifier", "MIC MRSA [µg/mL]"],
 "data": [
  ["Cc1ccnc(-c2cc(CCCCCCCCCCCCCCCCc3ccnc(-c4cc(C)ccn4)c3)ccn2)c1.[Cl-].[Cl-].[Cl-].[Cl-].[Ru+2].[Ru+2].c1cnc2c(c1)ccc1cccnc12.c1cnc2c(c1)ccc1cccnc12.c1cnc2c(c1)ccc1cccnc12.c1cnc2c(c1)ccc1cccnc12 [ΛΛ-Rubb16, [{Ru(phen)2}2(μ-bb16)]Cl4]", "=", 1],
  ["Cc1ccnc(-c2cc(CCCCCCCc3cc[n+]4c(c3)-c3cc(C)cc[n+]3[Ru-4]435([n+]4cccc6ccc7ccc[n+]3c7c64)[n+]3cccc4ccc6ccc[n+]5c6c43)ccn2)c1 [Rubb7mono, Δ-[Ru(phen)2(bb7)]^2+]", "=", 16],
  ["Cc1cc[n+]2c(c1)-c1cc(CCCCCCCCCCCCCCc3cc[n+]4c(c3)-c3cc(C)cc[n+]3[Ru-4]435([n+]4cccc6ccc7ccc[n+]3c7c64)[n+]3cccc4ccc6ccc[n+]5c6c43)cc[n+]1[Ru-4]213([n+]2cccc4ccc5ccc[n+]1c5c42)[n+]1cccc2ccc4ccc[n+]3c4c21.[Cl-].[Cl-].[Cl-].[Cl-] [ΛΛ-Rubb14, [{Ru(phen)2}2(μ-bb14)]Cl4]", "=", 1],
  ["Cc1cnc2c(ccc3c(C)c(C)cnc32)c1C.Cc1cnc2c(ccc3c(C)c(C)cnc32)c1C.Cc1cnc2c(ccc3c(C)c(C)cnc32)c1C.[Ru+2] [[Ru(Me4phen)3]^2+, reference compound]", "=", 4],
  ["Cc1cc[n+]2c(c1)-c1cc(CCc3cc[n+]4c(c3)-c3cc(C)cc[n+]3[Ru-4]435([n+]4cccc6ccc7ccc[n+]3c7c64)[n+]3cccc4ccc6ccc[n+]5c6c43)cc[n+]1[Ru-4]213([n+]2cccc4ccc5ccc[n+]1c5c42)[n+]1cccc2ccc4ccc[n+]3c4c21 [ΛΛ-Rubb2, [{Ru(phen)2}2(μ-bb2)]^4+]", ">", 128]
]}

Entry source: patent US20130172308A1
